Experiment: Vero-766 cells viability qHTS against the NCATS CANVASS Library: Counterscreen for Zika virus inhibition assay (AID 1347394); further: on the % scale 0 is the no-effect control and ±100 the full control effect; nearly all actives have a fitted effect of over 60% in size
Conditions: Vero 766 viability, CellTiter-Glo luminescence, 72 h; series mostly up to 46.1 µM
Inconclusive results are not listed. The source made the active and inactive calls. The call rests on the fitted dose curve; in most records, active means well fitted cell-killing curve with a large enough effect; inconclusive means small, poorly fitted or top-dose-only effect; inactive means flat fitted curve, though single readings scatter. Bridge positions count the residues as written; N and C are the ends. Square brackets hold non-standard residues; d marks the D form. Side chains are listed from the residue outwards. Peptide text beside a SMILES is read from it. * marks the point of attachment. Phg(4-OMe) = COc1ccc([C@H](N)C(=O)O)cc1; d(aIle) = CC[C@H](C)[C@@H](N)C(=O)O; d(aThr) = C[C@@H](O)[C@@H](N)C(=O)O; NMeF = CN[C@@H](Cc1ccccc1)C(=O)O; Isobutyryl = CC(C)C(=O)*
Bench note: report the call from active, inactive

Recorded results for 2 compounds are shown here.
CO[C@H]1[C@@H](OC(=O)/C(C)=C\[C@@H]2O[C@@H]2[C@H]2O[C@H]2C)[C@H](O)[C@H](OCC23C[C@@H]4[C@H](C)CC[C@H]4C4(C=O)CC2C=C(C(C)C)C34C(=O)O)O[C@@H]1C (stereo not given in full) : inactive
C/C(=C\[C@H](C)C(=O)C[C@H](O)CC1CC(=O)NC(=O)C1)[C@@H]1OC(=O)CCCC/C=C/C[C@@H](O)[C@@H]1C : inactive

What outcome does the record of this test show for `C=C[C@]1(C)CC[C@@H]([C@H](C)C(=O)CC=C(C)C)O1` ?
inactive

Test call for this compound, please: CC[C@H](C)[C@H]1NC(=O)[C@@H](NC(=O)C(C)C)[C@@H](C)OC(=O)[C@H](COC(=O)CNC(C)=O)NC(=O)[C@@H]([C@@H](C)O)NC(=O)[C@H](Cc2ccccc2)N(C)C(=O)[C@H](c2ccc(OC)cc2)NC1=O (Isobutyryl-T[d(aIle)][Phg(4-OMe)][NMeF][d(aThr)]S([Gly-Ac]); ester 1-C)
inactive

Per the assay record, what outcome was assigned to `C[C@@]12CCC[C@@](C)(C(=O)O)[C@H]1C[C@@H](O)[C@@]13C[C@@H](CC[C@@H]21)[C@](C)(O)C3` ?
inactive

For this compound, state the assay outcome: `CCC(=O)N[C@@H](C[C@H](C)C(Cl)(Cl)Cl)C(=O)N1C(=O)C=C(OC)[C@@H]1CC(C)C`
inactive

What call does the record list for COC1C(C)OC(OCC23C[C@@H]4[C@H](C)CC[C@H]4C4(C=O)CC2C=C(C(C)C)C34C(=O)O)[C@@H](O)[C@H]1O (stereo not given in full) ?
inactive

* * *

Parameter: activity, negative = inhibition. Scope: all listed entries.
Assay: Stat Signaling Pathway (AID 446);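 further: ME-180 cervical cancer cells given 40 pM IL-6 alongside compound; SIE-controlled beta-lactamase reporter measured as 460/530 nm FRET emission ratio; on the % scale 0 is the no-effect control and ±100 the full control effect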
Settings: ME-180 (cervical carcinoma) SIE beta-lactamase reporter, IL-6 stimulated, 5 h; at 7.69 µM (top of the series) unless noted
Records with an inconclusive call do not appear.
# unit: % | format: bare number

These recorded examples may help you get a feel for the data.
COc1ccc(-n2c(=O)c(-c3cccs3)nc3cncnc32)cc1 : -0.243
Cc1cccc(CNc2ncnc3ccc(-c4cccc(C#N)c4)cc23)c1 : -6.66
O=c1c(-c2cc(F)cc(F)c2)nc2cnc(N3CCOCC3)nc2n1C[C@H]1CCCO1 : 0.32
Cc1ccccc1-c1nc(N2CCN(C)CC2)c2ccccc2n1 : 0.381
CC(=O)N1CCC2(CC1)CCN(C(=O)Nc1cccc(F)c1)CC2 : -7.06

Give its activity, negative = inhibition value. Item: `Cc1ccccc1-c1nc(NCc2cccs2)c2ccccc2n1`
-16.7

Quick check: activity, negative = inhibition of `COc1ccc(Oc2ncc3nc(-c4cn(C)c5ccccc45)c(=O)n(C4CC4)c3n2)cc1` ?
19

Fill in the blank: the reported activity, negative = inhibition of `CS(=O)(=O)Nc1cccc(-c2ccc3ncnc(N4CCNCC4)c3c2)c1` is ____.
-16.8

activity, negative = inhibition for `c1ccc(-c2cccc(N3CC4(CCNCC4)C3)c2)cc1` ?
3.73

Recorded activity, negative = inhibition for `COc1cccc(Nc2ncc3nc(-c4ccccc4)c(=O)n(Cc4cccs4)c3n2)c1` , please?
21.9

Report activity, negative = inhibition for `O=C(c1ccco1)N1CCC[C@@]2(CCN(Cc3nccs3)C2)C1` please.
-3.91
